Cited source: ChEMBL document CHEMBL3991601

The reader will find reported Kd values listed item by item below.
Biological target: Serine/threonine-protein kinase N1 (Homo sapiens); note: in the data inactive means no Kd found up to 30 µM
Activity calls are given as the source filed them.

Query :: I would be grateful if you could share the reported Kd for CCc1nc(C(N)=O)c(Nc2ccc(N3CCC(N4CCN(C)CC4)CC3)c(OC)c2)nc1NC1CCOCC1 [GILTERITINIB] .
Result :: > 30 µM (inactive)

Query :: I would be grateful if you could share the reported Kd for COc1cc2ncnc(Nc3ccc(F)c(Cl)c3)c2cc1NC(=O)/C=C/CN1CCCCC1 [DACOMITINIB ANHYDROUS] .
Result :: > 30 µM (inactive)

Query :: I would be grateful if you could share the reported Kd for O=S(=O)(c1cccc2c(O)nccc12)N1CCCNCC1 [HYDROXYFASUDIL] .
Result :: 2.92 µM (active)

Note: attention shifts to another entry.
Query :: I would be grateful if you could share the reported Kd for CCOc1ccn(-c2ccc(F)cc2)c(=O)c1C(=O)Nc1ccc(Oc2ccnc(N)c2Cl)c(F)c1 [BMS-777607] .
Result :: > 30 µM (inactive)

---

Target: UniProtKB Q14680
Sequence (Q14680 whole entry): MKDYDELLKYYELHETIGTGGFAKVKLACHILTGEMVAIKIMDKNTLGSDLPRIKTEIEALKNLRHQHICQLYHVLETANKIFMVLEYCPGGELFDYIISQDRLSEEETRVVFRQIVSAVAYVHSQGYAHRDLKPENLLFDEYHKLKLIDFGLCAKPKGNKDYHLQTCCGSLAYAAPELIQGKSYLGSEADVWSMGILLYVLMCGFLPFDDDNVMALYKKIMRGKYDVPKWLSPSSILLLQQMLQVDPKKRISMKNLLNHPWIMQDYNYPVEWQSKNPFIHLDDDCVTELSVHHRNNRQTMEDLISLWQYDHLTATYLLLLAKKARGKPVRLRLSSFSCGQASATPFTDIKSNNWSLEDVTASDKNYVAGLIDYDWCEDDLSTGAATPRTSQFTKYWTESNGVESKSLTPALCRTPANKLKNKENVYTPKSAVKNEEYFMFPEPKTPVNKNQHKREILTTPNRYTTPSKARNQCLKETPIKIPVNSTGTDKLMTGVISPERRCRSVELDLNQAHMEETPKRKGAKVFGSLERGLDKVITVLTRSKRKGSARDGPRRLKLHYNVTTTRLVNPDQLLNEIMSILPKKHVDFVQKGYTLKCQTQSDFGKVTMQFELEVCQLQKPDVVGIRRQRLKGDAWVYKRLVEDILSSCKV
Calls of active or inactive are those of the source.
Thanks in advance; please answer with one of these: active, inactive

Query :: Recorded test outcome, item CC1(COc2ccc3c(c2)ncn3-c2ccc3cccc(N4CCC(N)CC4)c3n2)COC1
Result :: active

Query :: Recorded test outcome, item C=CCn1c(=O)c2cnc(Nc3ccc(N4CCN(C)CC4)cc3)nc2n1-c1cccc(C(C)(C)O)n1
Result :: inactive

Others:
Query :: Recorded test outcome, item O=C(O)c1ccc2c(c1)nc(Nc1cccc(Cl)c1)c1ccncc12
Result :: inactive

Query :: Recorded test outcome, item Cc1c(NC(=O)OC[C@@H]2COCCN2)cn2ncnc(Nc3ccc4c(cnn4Cc4cccc(F)c4)c3)c12
Result :: inactive

---

The reader will find reported Kd values listed item by item below.
Biological target: Mitogen-activated protein kinase kinase kinase 1 (Homo sapiens, UniProt Q13233); note: in the data inactive means no Kd found up to 30 µM
Active and inactive are the calls of the source.

The examples below pair each entry with its known result.
Query :: Return Kd measured with Mitogen-activated protein kinase kinase kinase 1 (Homo sapiens, UniProt Q13233) given this compound: COc1cc2ncnc3c2cc1OCCCCCN(C)Cc1ccc(Br)cc1N3
Result :: > 30 µM (inactive)

Query :: Return Kd measured with Mitogen-activated protein kinase kinase kinase 1 (Homo sapiens, UniProt Q13233) given this compound: O=C(NC[C@H](O)CO)c1ccncc1Nc1ccc(I)cc1F
Result :: > 30 µM (inactive)

Query :: Return Kd measured with Mitogen-activated protein kinase kinase kinase 1 (Homo sapiens, UniProt Q13233) given this compound: O=C(O)c1ccc2c(c1)nc(Nc1cccc(Cl)c1)c1ccncc12
Result :: > 30 µM (inactive)

Others:
Query :: Return Kd measured with Mitogen-activated protein kinase kinase kinase 1 (Homo sapiens, UniProt Q13233) given this compound: O=C(NOC[C@H](O)CO)c1ccc(F)c(F)c1Nc1ccc(I)cc1F
Result :: > 30 µM (inactive)

Query :: Return Kd measured with Mitogen-activated protein kinase kinase kinase 1 (Homo sapiens, UniProt Q13233) given this compound: CN(c1ncccc1CNc1nc(Nc2ccc3c(c2)CC(=O)N3)ncc1C(F)(F)F)S(C)(=O)=O
Result :: > 30 µM (inactive)

Query :: Return Kd measured with Mitogen-activated protein kinase kinase kinase 1 (Homo sapiens, UniProt Q13233) given this compound: CNC(=O)c1cc(COc2nnc(Nc3ccc(Cl)cc3)c3ccoc23)ccn1
Result :: > 30 µM (inactive)

Query :: Return Kd measured with Mitogen-activated protein kinase kinase kinase 1 (Homo sapiens, UniProt Q13233) given this compound: COCCN1CCN(Cc2ccc(-c3n[nH]c4c3C(=O)c3c(NC(=O)NN5CCOCC5)cccc3-4)cc2)CC1
Result :: > 30 µM (inactive)

Query :: Return Kd measured with Mitogen-activated protein kinase kinase kinase 1 (Homo sapiens, UniProt Q13233) given this compound: O=S(=O)(c1cccc2cnccc12)N1CCCNCC1
Result :: > 30 µM (inactive)

---

Molecular target: Serine/threonine-protein kinase N1 (Homo sapiens, UniProt Q16512); note: in the data inactive means no Kd found up to 30 µM
Sequence (Q16512 whole entry): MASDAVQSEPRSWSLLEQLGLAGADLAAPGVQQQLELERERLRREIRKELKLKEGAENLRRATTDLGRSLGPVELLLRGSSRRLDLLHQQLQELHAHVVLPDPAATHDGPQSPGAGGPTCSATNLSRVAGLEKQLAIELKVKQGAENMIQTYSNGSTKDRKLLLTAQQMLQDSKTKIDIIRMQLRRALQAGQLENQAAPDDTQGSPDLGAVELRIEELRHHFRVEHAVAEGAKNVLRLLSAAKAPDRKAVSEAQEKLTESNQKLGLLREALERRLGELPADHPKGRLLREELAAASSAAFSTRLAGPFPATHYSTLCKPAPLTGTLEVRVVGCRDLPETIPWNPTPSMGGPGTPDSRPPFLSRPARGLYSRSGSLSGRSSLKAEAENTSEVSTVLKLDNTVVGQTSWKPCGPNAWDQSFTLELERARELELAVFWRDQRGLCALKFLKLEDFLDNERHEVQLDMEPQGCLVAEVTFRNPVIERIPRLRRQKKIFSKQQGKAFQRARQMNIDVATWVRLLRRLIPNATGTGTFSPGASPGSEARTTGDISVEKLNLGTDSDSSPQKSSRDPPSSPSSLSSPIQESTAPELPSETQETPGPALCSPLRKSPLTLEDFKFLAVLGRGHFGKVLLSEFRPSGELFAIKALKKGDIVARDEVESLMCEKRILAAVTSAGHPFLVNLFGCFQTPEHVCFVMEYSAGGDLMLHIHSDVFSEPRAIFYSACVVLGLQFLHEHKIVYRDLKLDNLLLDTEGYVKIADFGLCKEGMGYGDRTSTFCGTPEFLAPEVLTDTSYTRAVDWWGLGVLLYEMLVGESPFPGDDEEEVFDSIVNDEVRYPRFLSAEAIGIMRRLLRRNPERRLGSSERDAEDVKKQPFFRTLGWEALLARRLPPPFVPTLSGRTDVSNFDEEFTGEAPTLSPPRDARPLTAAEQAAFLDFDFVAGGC
Activity calls are given as the source filed them.
endpoint: Kd

The examples below pair each entry with its known result.
Query :: Return Kd measured with Serine/threonine-protein kinase N1 (Homo sapiens, UniProt Q16512) given this compound: CN1CCN(c2nc(C3=C(c4c[nH]c5ccccc45)C(=O)NC3=O)c3ccccc3n2)CC1 [SOTRASTAURIN]
Result :: 2.95 µM

Query :: Return Kd measured with Serine/threonine-protein kinase N1 (Homo sapiens, UniProt Q16512) given this compound: COc1cc2ncnc3c2cc1OCCCCCN(C)Cc1ccc(Br)cc1N3 [JNJ-26483327]
Result :: > 30 µM (inactive)

Others:
Query :: Return Kd measured with Serine/threonine-protein kinase N1 (Homo sapiens, UniProt Q16512) given this compound: COCCN1CCN(Cc2ccc(-c3n[nH]c4c3C(=O)c3c(NC(=O)NN5CCOCC5)cccc3-4)cc2)CC1 [RGB-286638]
Result :: > 30 µM (inactive)

Query :: Return Kd measured with Serine/threonine-protein kinase N1 (Homo sapiens, UniProt Q16512) given this compound: Cn1c(=O)c(F)c(Nc2ccc(I)cc2F)c2c(=O)n(C[C@@H](O)CO)cnc21 [TAK-733]
Result :: > 30 µM (inactive)

Query :: Return Kd measured with Serine/threonine-protein kinase N1 (Homo sapiens, UniProt Q16512) given this compound: NC[C@@](O)(c1ccc(Cl)cc1)c1ccc(-c2cn[nH]c2)cc1 [AT-13148]
Result :: 0.025 µM (active)

Query :: Return Kd measured with Serine/threonine-protein kinase N1 (Homo sapiens, UniProt Q16512) given this compound: CC[C@@](C)(Nc1ccnc(-c2c[nH]c3ncccc23)n1)C(=O)NCC(F)(F)F [DECERNOTINIB]
Result :: 49.8 µM (active)

Query :: Return Kd measured with Serine/threonine-protein kinase N1 (Homo sapiens, UniProt Q16512) given this compound: Cc1cc(Nc2nc(N[C@@H](C)c3ncc(F)cn3)ncc2Cl)n[nH]1 [AZD-1480]
Result :: > 30 µM (inactive)

Query :: Return Kd measured with Serine/threonine-protein kinase N1 (Homo sapiens, UniProt Q16512) given this compound: S=C(NCc1ccc2c(c1)OCO2)N1CCN(c2ncnc3c2oc2ccccc23)CC1 [AMUVATINIB]
Result :: > 30 µM (inactive)

---

Reported Kd values, Misshapen-like kinase 1 (Homo sapiens).
Calls of active or inactive are those of the source.

The examples below pair each entry with its known result.
Query :: Return Kd measured with Misshapen-like kinase 1 (Homo sapiens) given this compound: O=C(NC[C@H](O)CO)c1ccncc1Nc1ccc(I)cc1F
Sequence (Q8N4C8 whole entry): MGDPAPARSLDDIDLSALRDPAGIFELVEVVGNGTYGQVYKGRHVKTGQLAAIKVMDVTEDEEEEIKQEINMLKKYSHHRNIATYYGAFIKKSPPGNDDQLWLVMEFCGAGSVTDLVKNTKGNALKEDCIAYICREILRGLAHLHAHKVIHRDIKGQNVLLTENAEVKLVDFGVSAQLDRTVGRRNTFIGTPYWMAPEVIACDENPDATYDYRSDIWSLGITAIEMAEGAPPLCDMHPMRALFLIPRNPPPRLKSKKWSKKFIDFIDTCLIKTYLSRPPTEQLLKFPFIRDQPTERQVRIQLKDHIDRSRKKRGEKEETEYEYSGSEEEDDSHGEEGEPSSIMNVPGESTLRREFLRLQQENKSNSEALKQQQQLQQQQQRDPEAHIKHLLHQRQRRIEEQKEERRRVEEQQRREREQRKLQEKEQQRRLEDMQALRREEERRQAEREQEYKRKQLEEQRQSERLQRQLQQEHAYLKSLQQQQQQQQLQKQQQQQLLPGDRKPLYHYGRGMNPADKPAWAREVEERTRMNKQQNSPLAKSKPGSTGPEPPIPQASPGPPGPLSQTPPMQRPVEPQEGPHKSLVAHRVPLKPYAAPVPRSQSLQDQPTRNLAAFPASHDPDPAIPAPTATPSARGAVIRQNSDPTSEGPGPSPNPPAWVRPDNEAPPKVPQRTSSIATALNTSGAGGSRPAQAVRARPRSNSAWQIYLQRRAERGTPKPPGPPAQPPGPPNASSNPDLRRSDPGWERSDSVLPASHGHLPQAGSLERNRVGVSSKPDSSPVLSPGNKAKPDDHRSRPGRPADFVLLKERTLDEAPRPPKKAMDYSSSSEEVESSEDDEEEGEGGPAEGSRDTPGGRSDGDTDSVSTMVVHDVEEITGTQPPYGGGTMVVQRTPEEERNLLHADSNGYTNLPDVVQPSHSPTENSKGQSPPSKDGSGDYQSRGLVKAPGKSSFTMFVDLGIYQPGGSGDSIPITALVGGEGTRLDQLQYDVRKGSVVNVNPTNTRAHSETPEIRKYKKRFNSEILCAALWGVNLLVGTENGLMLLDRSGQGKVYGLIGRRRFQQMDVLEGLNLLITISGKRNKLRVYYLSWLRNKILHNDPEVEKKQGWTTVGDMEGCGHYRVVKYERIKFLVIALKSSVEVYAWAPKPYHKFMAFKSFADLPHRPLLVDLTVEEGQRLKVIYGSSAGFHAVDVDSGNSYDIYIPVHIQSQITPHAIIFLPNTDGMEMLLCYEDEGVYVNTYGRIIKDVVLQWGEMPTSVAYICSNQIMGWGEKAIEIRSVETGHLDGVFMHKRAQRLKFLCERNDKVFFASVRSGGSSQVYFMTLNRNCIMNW
Result :: > 30 µM (inactive)

Query :: Return Kd measured with Misshapen-like kinase 1 (Homo sapiens) given this compound: O=C(NOC[C@H](O)CO)c1ccc(F)c(F)c1Nc1ccc(I)cc1F
Result :: > 30 µM (inactive)

Query :: Return Kd measured with Misshapen-like kinase 1 (Homo sapiens) given this compound: CCc1cc2c(cc1N1CCC(N3CCOCC3)CC1)C(C)(C)c1[nH]c3cc(C#N)ccc3c1C2=O
Result :: > 30 µM (inactive)

Others:
Query :: Return Kd measured with Misshapen-like kinase 1 (Homo sapiens) given this compound: C=CC(=O)Nc1cc(Nc2nccc(-c3cn(C)c4ccccc34)n2)c(OC)cc1N(C)CCN(C)C
Result :: > 30 µM (inactive)

Query :: Return Kd measured with Misshapen-like kinase 1 (Homo sapiens) given this compound: Cc1ccc(C(=O)Nc2ccc(Oc3cc4cnn(C)c4cc3-c3cn[nH]c3)c(F)c2)c(=O)n1-c1ccc(F)cc1
Result :: > 30 µM (inactive)

Query :: Return Kd measured with Misshapen-like kinase 1 (Homo sapiens) given this compound: O=C(Nc1ccc(OC(F)(F)F)cc1)c1sccc1NCc1ccnc2ccccc12
Result :: > 30 µM (inactive)

Query :: Return Kd measured with Misshapen-like kinase 1 (Homo sapiens) given this compound: O[C@H]1CC[C@H](Nc2ncc3nc(Nc4c(F)cc(F)cc4F)n([C@H]4CCOC4)c3n2)CC1
Result :: > 30 µM (inactive)

Query :: Return Kd measured with Misshapen-like kinase 1 (Homo sapiens) given this compound: CCN(CCCOc1ccc2c(Nc3cc(CC(=O)Nc4cccc(F)c4)n[nH]3)ncnc2c1)CCOP(=O)(O)O
Result :: > 30 µM (inactive)

---

Molecular target: Serine/threonine-protein kinase PLK4 (Homo sapiens, UniProt O00444); note: in the data inactive means no Kd found up to 30 µM
Sequence (O00444 whole entry): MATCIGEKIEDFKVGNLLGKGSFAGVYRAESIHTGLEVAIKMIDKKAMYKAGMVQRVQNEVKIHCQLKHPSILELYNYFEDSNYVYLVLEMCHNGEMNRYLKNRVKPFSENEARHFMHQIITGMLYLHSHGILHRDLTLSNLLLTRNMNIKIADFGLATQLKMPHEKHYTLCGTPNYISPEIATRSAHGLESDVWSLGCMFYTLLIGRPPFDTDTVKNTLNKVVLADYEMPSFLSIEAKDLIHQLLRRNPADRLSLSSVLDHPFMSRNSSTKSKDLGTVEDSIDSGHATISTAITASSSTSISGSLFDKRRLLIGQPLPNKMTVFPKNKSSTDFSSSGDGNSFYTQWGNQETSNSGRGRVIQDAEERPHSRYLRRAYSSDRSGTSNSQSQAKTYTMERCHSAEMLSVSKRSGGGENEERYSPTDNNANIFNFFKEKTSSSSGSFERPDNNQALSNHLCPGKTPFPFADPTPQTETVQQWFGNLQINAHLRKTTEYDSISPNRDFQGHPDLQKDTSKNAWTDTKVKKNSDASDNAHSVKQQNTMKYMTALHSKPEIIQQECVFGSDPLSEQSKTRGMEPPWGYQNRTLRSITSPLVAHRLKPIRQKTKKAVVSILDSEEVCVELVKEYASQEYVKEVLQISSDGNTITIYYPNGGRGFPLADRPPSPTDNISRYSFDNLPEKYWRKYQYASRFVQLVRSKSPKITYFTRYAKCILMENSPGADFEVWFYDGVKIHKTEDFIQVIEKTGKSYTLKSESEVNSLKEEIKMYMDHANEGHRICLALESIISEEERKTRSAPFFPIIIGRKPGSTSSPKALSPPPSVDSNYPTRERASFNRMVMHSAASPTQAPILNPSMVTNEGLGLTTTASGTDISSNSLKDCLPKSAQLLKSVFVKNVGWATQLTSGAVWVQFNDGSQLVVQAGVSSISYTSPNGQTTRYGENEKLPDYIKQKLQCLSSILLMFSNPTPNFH
Activity calls are given as the source filed them.
The reader will find reported Kd values listed item by item below.

The examples below pair each entry with its known result.
Query :: Return Kd measured with Serine/threonine-protein kinase PLK4 (Homo sapiens, UniProt O00444) given this compound: O=C(NC[C@H](O)CO)c1ccncc1Nc1ccc(I)cc1F [PIMASERTIB]
Result :: > 30 µM (inactive)

Query :: Return Kd measured with Serine/threonine-protein kinase PLK4 (Homo sapiens, UniProt O00444) given this compound: O=c1[nH]c([C@@H]2CCCN2)nc2c1oc1ccc(Cl)cc12
Result :: > 30 µM (inactive)

Query :: Return Kd measured with Serine/threonine-protein kinase PLK4 (Homo sapiens, UniProt O00444) given this compound: Cc1cc(-c2cc(OC(=O)c3ccccc3)ccc2Cl)cc2nnc(Nc3ccc(OCCN4CCCC4)cc3)nc12 [TG100-801]
Result :: > 30 µM (inactive)

Note: attention shifts to another entry.
Query :: Return Kd measured with Serine/threonine-protein kinase PLK4 (Homo sapiens, UniProt O00444) given this compound: CCc1nc(C(N)=O)c(Nc2ccc(N3CCC(N4CCN(C)CC4)CC3)c(OC)c2)nc1NC1CCOCC1 [GILTERITINIB]
Result :: 0.018 µM
